Biological target: human PHD2 (Homo sapiens (Human), UniProt Q9GZT9)
Sequence (Q9GZT9 whole entry): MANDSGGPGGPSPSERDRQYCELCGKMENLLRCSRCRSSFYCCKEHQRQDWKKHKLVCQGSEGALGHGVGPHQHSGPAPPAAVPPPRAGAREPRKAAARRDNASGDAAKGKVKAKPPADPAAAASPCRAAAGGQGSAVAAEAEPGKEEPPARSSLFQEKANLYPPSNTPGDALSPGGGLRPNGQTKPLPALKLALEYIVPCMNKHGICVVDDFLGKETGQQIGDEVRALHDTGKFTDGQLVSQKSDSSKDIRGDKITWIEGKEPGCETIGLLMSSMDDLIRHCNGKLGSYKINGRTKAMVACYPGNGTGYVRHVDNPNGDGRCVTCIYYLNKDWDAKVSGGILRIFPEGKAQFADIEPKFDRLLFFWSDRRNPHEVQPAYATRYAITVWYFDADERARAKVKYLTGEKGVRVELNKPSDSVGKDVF
Assay: Test 2: human PHD2 inhibitory activity, fluorescence polarization assay of HIF-1α peptide proline hydroxylation
Assay type: biochemical
Conditions: test compound's concentration 1 μM; Test 2, fluorescence polarization assay; read-out: Percent inhibition (% at 1 μM)
Procedure: (1) Expression and Preparation of Human PHD2 A registered sequence of human PHD2 (NM_022051) was introduced into pcDNA3.1/Hygro(+) vector (Invitrogen), and the sequence was verified. […] The activity of human PHD2 enzyme was measured with a substrate which is a 19-residue partial peptide based on the sequence of HIF-1α; specifically, the hydroxylation of a proline residue in the peptide was measured by FP (Fluorescence Polarization). […]
Lab note: class by inhibition at 1 µM, see lo (below 80%), mid (80% to below 90%), hi (90% or more)

{"compound": "O=C(O)CNC(=O)C1=C(O)CCN(Cc2ccc(OCc3ccccc3)c(F)c2)C1=O", "assaySystem": "human PHD2 (Homo sapiens (Human), UniProt Q9GZT9)", "classLabel": "hi"}
{"compound": "CS(=O)(=O)c1ccc(-c2ccc(CN3CCC(O)=C(C(=O)NCC(=O)O)C3=O)cc2)cc1", "assaySystem": "human PHD2 (Homo sapiens (Human), UniProt Q9GZT9)", "classLabel": "hi"}
{"compound": "Cn1nccc1-c1ccc(CN2CCC(O)=C(C(=O)NCC(=O)O)C2=O)cc1", "assaySystem": "human PHD2 (Homo sapiens (Human), UniProt Q9GZT9)", "classLabel": "mid"}
{"compound": "Cc1nc(-c2ccccc2)oc1CN1C(=O)C(C(=O)NCC(=O)O)=C(O)CC1(C)C", "assaySystem": "human PHD2 (Homo sapiens (Human), UniProt Q9GZT9)", "classLabel": "lo"}
{"compound": "O=C(O)CNC(=O)C1=C(O)CC2(COC2)N(CC2CCC(c3ccccc3)CC2)C1=O (centres unmarked)", "assaySystem": "human PHD2 (Homo sapiens (Human), UniProt Q9GZT9)", "classLabel": "hi"}
{"compound": "CC1(C)CC(O)=C(C(=O)NCC(=O)O)C(=O)N1Cc1ccc(C2CC2)cc1", "assaySystem": "human PHD2 (Homo sapiens (Human), UniProt Q9GZT9)", "classLabel": "lo"}
{"compound": "O=C(O)CNC(=O)C1=C(O)CC2(CCC2)N(Cc2ccc(OCC3CC3)cc2)C1=O", "assaySystem": "human PHD2 (Homo sapiens (Human), UniProt Q9GZT9)", "classLabel": "mid"}
{"compound": "Cc1ccc(Oc2ncc(CN3CCC(O)=C(C(=O)NCC(=O)O)C3=O)cc2F)cc1", "assaySystem": "human PHD2 (Homo sapiens (Human), UniProt Q9GZT9)", "classLabel": "hi"}
{"compound": "O=C(O)CNC(=O)C1=C(O)CCN(Cc2ccc(Oc3cccc(OC(F)(F)F)c3)nc2)C1=O", "assaySystem": "human PHD2 (Homo sapiens (Human), UniProt Q9GZT9)", "classLabel": "hi"}
{"compound": "CC1(C)CC(O)=C(C(=O)NCC(=O)O)C(=O)N1Cc1ccc(OC(CF)CF)c(Cl)c1", "assaySystem": "human PHD2 (Homo sapiens (Human), UniProt Q9GZT9)", "classLabel": "lo"}
{"compound": "CCOc1ccc(CN2C(=O)C(C(=O)NCC(=O)O)=C(O)CC2(C)C)cc1", "assaySystem": "human PHD2 (Homo sapiens (Human), UniProt Q9GZT9)", "classLabel": "lo"}
{"compound": "N#Cc1ccc(Oc2ccc(CN3CCC(O)=C(C(=O)NCC(=O)O)C3=O)cn2)cc1", "assaySystem": "human PHD2 (Homo sapiens (Human), UniProt Q9GZT9)", "classLabel": "hi"}
{"compound": "O=C(O)CNC(=O)C1=C(O)CCN(c2cccc(Oc3ccccc3)c2)C1=O", "assaySystem": "human PHD2 (Homo sapiens (Human), UniProt Q9GZT9)", "classLabel": "mid"}
